The measurements presented in this section are drawn from the Human Domainome abundance scans (Beltran et al. 2025).

B1: Nuclear receptor subfamily 1 group D member 2, residues 103 to 171; numbered along this chain, Q14995 (parent)
chain: CKVCGDVASGFHYGVHACEGCKGFFRRSIQQNIQYKKCLKNENCSIMRMNRNRCQQCRFKKCLSVGMSR

# Variants of: B1
# procedure.text: abundance fitness (aPCA) (normalised: wild type 0, dead -1); higher = more abundant; growth selection in yeast, the domain comes from the species named
# conditions: Homo sapiens
Classification by abundance fitness follows these ranges: low bin = under -0.5, mid bin = from -0.5 up to -0.01, high bin = -0.01 and over

Qu. Any idea which band CKVCGDVASGFHYGVHACEGCKGFFRRSIQQNIQYKKCLKNENCSIMRMNRNRCQQCRFKKALSVGMSR is in?
Ans. mid bin

Qu. What do you have for CKVCGDVASGFHYGVHACEGCKGFFRRSIQQNIQYKSCLKNENCSIMRMNRNRCQQCRFKKCLSVGMSR ?
Ans. high bin

Qu. Next: CKVCGDVASGFHYGVHACEGCKGFFRRSIQQNIQYKKCLKNENCSIMRMNRNRCQQCRFKKCLVVGMSR
Ans. mid bin

Qu. Try CKVCGDVASGFHYGVHACEGCKGFFRRSIQQNIQYKKCLKNENCSIMRMNRNRCQPCRFKKCLSVGMSR next.
Ans. mid bin

Qu. Field entry: CKVCGDVASGFHYGVHACEGCKGFFRRSIQQNIQYKKCLKNENCSIMRMNRNRCQWCRFKKCLSVGMSR
Ans. high bin

Qu. What do you have for CKVCGDVASGFHYGVHACEGCKGFFRRSIQQNIQYKKCLKNENCSIMRMNRNRCPQCRFKKCLSVGMSR ?
Ans. high bin

Qu. Follow-up entry: CKVCGDVASGFHYGVHACEGCKGFFRRSIQQNIQYTKCLKNENCSIMRMNRNRCQQCRFKKCLSVGMSR
Ans. mid bin

Qu. Param item: CKVCGDVASGFHYGVHACEGCKGFFRRSIQQNIQYKKCLKNENCSIMRMNRNRCQQSRFKKCLSVGMSR
Ans. low bin

Qu. # iterate: CKVCGDVASGFHYGVHACEGCKGFFRRSIQQNIQYKKCLKNENCSIMRMNRVRCQQCRFKKCLSVGMSR
Ans. low bin

Qu. Now the same for CKVCGDVASGFHYGVHACEGCKGFFRRSIQQNIQYKKCLKNENCSIMRMNRNRRQQCRFKKCLSVGMSR
Ans. low bin
